// provenance: paper PMC5543139

target: glucagon receptor on CHO-GCGR cells (human); test: flow cytometry on live cells; conditions: D-PBS pH 7.4, 5 mM MgCl2, 4.5 g/L glucose, 0.1 mg/mL yeast tRNA, 1 mg/L BSA; 4 C, 1 h (45 min in Results for Kd)
PARAMETER: Kd (nM)
One number for each entry, in nM.

Please report the recorded Kd for ATCCAGAGTGACGCAGCAGATAAGTAGGTATCCGTTTGAAAAACTTTTCTGACCGTCCGACTATGGACACGGTGGCTTAGT [GR-3] .
52.7
